The values you see were collected from ChEMBL document CHEMBL1156664.

inhibition at 10 µg/mL values, listed per item
assay: Antiinflammatory activity against FMLP/CB stimulated human neutrophils assessed as inhibition of superoxide anion generation at 10 ug/mL relative to control
Type: functional
conditions_used: Neutrophil

[
  {
    "compound": "C=C1/C=C\\[C@H](OC(=O)COC(=O)CC(C)C)[C@@]2(C)[C@@H](OC(C)=O)CC[C@]3(CO3)[C@@H]2[C@H](OC(C)=O)[C@]2(O)[C@@H](C)C(=O)O[C@H]2[C@H]1Cl (relative stereo) [FRAJUNOLIDE G]",
    "inhibition at 10 µg/mL (%)": -7.5
  },
  {
    "compound": "O=c1c(-c2ccc(O)cc2)coc2cc(O)cc(O)c12",
    "inhibition at 10 µg/mL (%)": 65
  },
  {
    "compound": "C=C1[C@@H]2[C@H](OC(C)=O)[C@@]3(O)[C@H](/C=C(/C)CC[C@H](OC(C)=O)[C@@]2(C)[C@@H](OC(C)=O)C[C@H]1OC(=O)CC)OC(=O)[C@@H]3C (relative stereo) [FRAJUNOLIDE J]",
    "inhibition at 10 µg/mL (%)": 20.1
  }
]
